Source of measurements: patent US11111214B2

Measurement description: in vitro
Experimental parameters: rat, hepatocytes
Provide the recorded CLhep predicted for the entries that follow.
Numbers only, in mL/min/kg.

Below, each entry is followed by its recorded CLhep predicted result.
[[record]]
molecule = "COCCOCCOCCOCCOCCNC(=O)O[C@H]1CCN(C[C@H](c2ccccc2)N(C)C(=O)Cc2ccc(Cl)c(Cl)c2)C1.Cl"
measured_metric = "CLhep predicted"
result_value = 48.8

[[record]]
molecule = "CN(C(=O)Cc1ccc(Cl)c(Cl)c1)[C@H](CN1CCCC1)c1ccc(OCCO)cc1.Cl"
measured_metric = "CLhep predicted"
result_value = 14.3

[[record]]
molecule = "COCCOCCOCCOCCOCCNc1ccc([C@@H](CN2CCCC2)N(C)C(=O)Cc2ccc(Cl)c(Cl)c2)cc1"
measured_metric = "CLhep predicted"
result_value = 26.5


### Prompt Consider the compound CN(C(=O)Cc1ccc(Cl)c(Cl)c1)[C@H](CN1CCCC1)c1cccc(NS(=O)(=O)CCOCC(F)(F)F)c1.Cl . State its measured CLhep predicted.
### Response 26.8

====

Provide the recorded Ki for the entries that follow.
Study target: recombinant human kappa (KOR) opioid receptor (Homo sapiens, UniProt P41145)
Sequence (P41145 whole entry): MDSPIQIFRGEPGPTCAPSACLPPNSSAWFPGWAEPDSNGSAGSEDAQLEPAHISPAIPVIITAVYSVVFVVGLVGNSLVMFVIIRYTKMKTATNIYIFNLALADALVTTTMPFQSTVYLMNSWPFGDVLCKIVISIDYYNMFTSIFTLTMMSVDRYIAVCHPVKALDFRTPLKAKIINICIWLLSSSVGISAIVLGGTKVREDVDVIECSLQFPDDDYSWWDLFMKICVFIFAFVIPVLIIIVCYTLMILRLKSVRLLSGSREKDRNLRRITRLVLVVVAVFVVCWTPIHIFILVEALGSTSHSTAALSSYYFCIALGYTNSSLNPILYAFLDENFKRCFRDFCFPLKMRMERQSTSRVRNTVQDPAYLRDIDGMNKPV
Measurement description: biochemical
Give bare numbers, in nM.

Below, each entry is followed by its recorded Ki result.
[[record]]
compound = "CN(C(=O)Cc1ccc(Cl)c(Cl)c1)[C@H](CN1CCCC1)c1cccc(NS(=O)(=O)C2CS(=O)(=O)CC2O)c1 (stereo partly shown)"
measured_metric = "Ki"
result_value = 0.07

[[record]]
compound = "COCCOCCOCCOCCOCCNc1ccc([C@@H](CN2CCCC2)N(C)C(=O)Cc2ccc(Cl)c(Cl)c2)cc1"
measured_metric = "Ki"
result_value = 5.7

[[record]]
compound = "COCCOCCOCCOCCOCCO[C@H]1CCN(C[C@H](c2ccccc2)N(C)C(=O)C(c2ccccc2)c2ccccc2)C1"
measured_metric = "Ki"
result_value = 2070

[[record]]
compound = "CCCCOCCOCCOCCS(=O)(=O)Nc1cccc([C@@H](CN2CCCC2)N(C)C(=O)Cc2ccccn2)c1"
measured_metric = "Ki"
result_value = 60.5

[[record]]
compound = "COCCOCCOCCNC(=O)O[C@H]1CCN(C[C@H](c2ccccc2)N(C)C(=O)Cc2ccc(Cl)c(Cl)c2)C1.Cl"
measured_metric = "Ki"
result_value = 275

[[record]]
compound = "CN(C(=O)Cc1ccc(Cl)c(Cl)c1)[C@H](CN1CC[C@H](O)C1)c1ccc(OCCO)cc1"
measured_metric = "Ki"
result_value = 0.06

[[record]]
compound = "COCCOCCOCCOCCOCCO[C@H]1CCN(C[C@H](c2ccccc2)N(C)C(=O)Cc2ccccc2[N+](=O)[O-])C1"
measured_metric = "Ki"
result_value = 1200

[[record]]
compound = "COCCOCCOCCO[C@H]1CCN(C[C@H](c2ccc(OCCO)cc2)N(C)C(=O)Cc2ccc(Cl)c(Cl)c2)C1"
measured_metric = "Ki"
result_value = 22.6

[[record]]
compound = "COCCOCCOCCOCCOCCO[C@H]1CCN(C[C@H](c2ccccc2)N(C)C(=O)Cc2ccc(Cl)c(Cl)c2)C1"
measured_metric = "Ki"
result_value = 68.8


### Prompt Consider the compound CN(C(=O)Cc1ccc(Cl)c(Cl)c1)[C@H](CN1CC[C@H](OCCOCCO)C1)c1ccccc1 . State its measured Ki.
### Response 148

====

Provide the recorded inhibition at 10 µM for the entries that follow.
Study target: recombinant human mu (MOR) opioid receptor (Homo sapiens)
Construct: expressed in transfected cells; host or cells: CHO-K1 cell membranes
Sequence (P35372 whole entry): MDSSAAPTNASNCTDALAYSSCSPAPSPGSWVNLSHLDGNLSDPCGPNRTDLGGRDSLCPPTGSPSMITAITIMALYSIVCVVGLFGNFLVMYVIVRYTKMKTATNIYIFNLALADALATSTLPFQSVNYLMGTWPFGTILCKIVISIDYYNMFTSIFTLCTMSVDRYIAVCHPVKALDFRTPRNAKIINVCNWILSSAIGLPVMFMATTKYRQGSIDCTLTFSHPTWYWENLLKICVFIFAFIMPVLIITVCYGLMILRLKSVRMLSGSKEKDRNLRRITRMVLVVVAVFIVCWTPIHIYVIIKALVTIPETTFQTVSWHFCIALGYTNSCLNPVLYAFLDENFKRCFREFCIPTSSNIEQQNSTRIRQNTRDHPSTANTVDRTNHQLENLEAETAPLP
Measurement description: biochemical
Format: binding
Experimental parameters: read-out: Mu receptor % inhibition at single concentration, % inhibition @ 10 μM
Give bare numbers, in %.

[[record]]
compound = "COCCS(=O)(=O)Nc1cccc([C@@H](CN2CCCC2)N(C)C(=O)Cc2ccc(Cl)c(Cl)c2)c1 [compound 18]"
result_value = 97.8

[[record]]
compound = "COCCOCCOCCOCCOCCOCCOCCOC(=O)NC1(C(=O)Nc2cccc([C@@H](CN3CC[C@H](O)C3)N(C)C(=O)Cc3ccc(Cl)c(Cl)c3)c2)CC1 [compound 49]"
result_value = 78.1

[[record]]
compound = "COCCOCCOCCOCCOCCNC(=O)Nc1cccc([C@@H](CN2CCCC2)N(C)C(=O)C(c2ccc(Cl)cc2)c2ccc(Cl)cc2)c1 [compound 16]"
result_value = 27.1


Provide inhibition at 10 µM for all items below, preserving their order.
1. COCCOCCOCCOCCOCCO[C@H]1CCN(C[C@H](c2ccccc2)N(C)C(=O)CNc2ccccc2)C1 [compound 8]
2. COCCOCCOCCO[C@H]1CCN(C[C@H](c2ccc(C(F)(F)F)cc2)N(C)C(=O)Cc2ccc(Cl)c(Cl)c2)C1 [compound 33]
3. COCCOCCOCCO[C@H]1CCN(C[C@H](c2ccccc2)N(C)C(=O)Cc2ccc(Cl)c(Cl)c2)C1.Cl [compound 4]
4. CN(C(=O)Cc1ccc(Cl)c(Cl)c1)[C@H](CN1CCCC1)c1ccc(OCCO)cc1.Cl [compound 36]
5. CCCCOCCOCCOCCS(=O)(=O)Nc1cccc([C@@H](CN2CCCC2)N(C)C(=O)Cc2ccc(Cl)c(Cl)c2)c1 [compound 21]
6. COCCOCCOCCO[C@H]1CCN(C[C@H](c2ccc(OCCO)cc2)N(C)C(=O)Cc2ccc(Cl)c(Cl)c2)C1 [compound 37]
7. COCCOCC(=O)Nc1cccc([C@@H](CN2CC[C@H](O)C2)N(C)C(=O)Cc2ccc(Cl)c(Cl)c2)c1 [compound 50]

### Response
[47.5, 84.1, 82, 64.9, 96.5, 57.8, 101]

Provide inhibition at 10 µM for all items below, preserving their order.
1. COCCOCC(=O)Nc1cccc([C@@H](CN2CC[C@H](O)C2)N(C)C(=O)C(c2ccccc2)c2ccccc2)c1 [compound 11]
2. COCCOCCOCCOCCOCCOCCOCCOC(=O)N[C@H](C(=O)Nc1cccc([C@@H](CN2CC[C@H](O)C2)N(C)C(=O)Cc2ccc(Cl)c(Cl)c2)c1)C(C)C [compound 48]
3. COCCOCCOCCNC(=O)O[C@H]1CCN(C[C@H](c2ccccc2)N(C)C(=O)Cc2ccc(Cl)c(Cl)c2)C1.Cl [compound 5]
4. COCCOCCOCCOCCOCCOc1ccc(CC(=O)N(C)[C@H](CN2CCCC2)c2ccccc2)cc1 [compound 13]
5. COCCOCCOCCOCCOCCOc1ccc([C@@H](CN2CCCC2)N(C)C(=O)Cc2ccc(Cl)c(Cl)c2)cc1.Cl [compound 34]
6. COCCOCCOCCOCCOCCNC(=O)Nc1cccc([C@@H](CN2CCCC2)N(C)C(=O)Cc2ccc(Cl)c(Cl)c2)c1 [compound 15]

### Response
[45.2, 73.2, 35.6, 69.9, 17.6, 84.1]

Provide inhibition at 10 µM for all items below, preserving their order.
1. COCCOCCOCCOCCOCCOCC(=O)Nc1cccc([C@@H](CN2CCCC2)N(C)C(=O)C(c2ccccc2)c2ccccc2)c1 [compound 12]
2. COCCOCCS(=O)(=O)Nc1cccc([C@@H](CN2CCCC2)N(C)C(=O)Cc2ccc(Cl)c(Cl)c2)c1 [compound 20]
3. COCCOCCOCCOCCOCCNc1ccc([C@@H](CN2CCCC2)N(C)C(=O)Cc2ccc(Cl)c(Cl)c2)cc1 [compound 35]
4. CN(C(=O)Cc1ccc(Cl)c(Cl)c1)[C@H](CN1CC[C@H](OCC(=O)O)C1)c1ccccc1 [compound 24]
5. CCN(CCOC)C[C@H](c1ccccc1)N(C)C(=O)Cc1ccc(Cl)c(Cl)c1.Cl [compound 10]

### Response
[46.5, 97.1, 30.6, -7.9, 82.8]

Provide inhibition at 10 µM for all items below, preserving their order.
1. CN(C(=O)Cc1ccc(Cl)c(Cl)c1)[C@H](CN1CC[C@H](O)C1)c1ccc(OCCO)cc1 [compound 38]
2. CN(C(=O)Cc1ccc(Cl)c(Cl)c1)[C@H](CN1CC[C@H](OCCOCCOCC(=O)O)C1)c1ccccc1 [compound 29]
3. CN(C(=O)Cc1ccc(Cl)c(Cl)c1)[C@H](CN1CC[C@H](OCCO)C1)c1ccccc1 [compound 25]
4. COCCOCCOCCOCCOCCO[C@H]1CCN(C[C@H](c2ccccc2)N(C)C(=O)Cc2ccc(Cl)c(Cl)c2)C1 [compound 7]
5. CN(C(=O)C(c1ccccc1)c1ccccc1)[C@H](CN1CCCC1)c1cccc(N)c1 [compound 51]
6. COCCOCCOCCOCCOCCO[C@H]1CCN(C[C@H](c2ccccc2)N(C)C(=O)Cc2ccccc2[N+](=O)[O-])C1 [compound 41]
7. CN(C(=O)Cc1ccc(Cl)c(Cl)c1)[C@H](CN1CCCC1)c1cccc(NS(=O)(=O)CCOCC(F)(F)F)c1.Cl [compound 19]

### Response
[87.2, 30.5, 57.5, 68.6, 54.5, 20.5, 99.1]

====

Study target: recombinant human kappa (KOR) opioid receptor (Homo sapiens, UniProt P41145)
Measurement description: biochemical
pIC50: −log10 of the molar value.
So basically: pIC50 at 9 or higher? That is yes. Lower than 9? That is no.

[[record]]
molecule = "COCCOCC(=O)Nc1cccc([C@@H](CN2CC[C@H](O)C2)N(C)C(=O)Cc2ccc(Cl)c(Cl)c2)c1 [compound 50]"
cat = "yes"

[[record]]
molecule = "COCCOCCOCCO[C@H]1CCN(C[C@H](c2ccc(C(F)(F)F)cc2)N(C)C(=O)Cc2ccc(Cl)c(Cl)c2)C1 [compound 33]"
cat = "no"

[[record]]
molecule = "CN(C(=O)Cc1ccc(Cl)c(Cl)c1)[C@H](CN1CCCC1)c1cccc(NS(=O)(=O)C2CS(=O)(=O)CC2O)c1 (stereo partly shown) [compound 22]"
cat = "yes"

[[record]]
molecule = "COCCOCCOCCO[C@H]1CCN(C[C@H](c2ccccc2)N(C)C(=O)Cc2ccc(Cl)c(Cl)c2)C1.Cl [compound 4]"
cat = "no"

[[record]]
molecule = "COCCOCCOCCOCCOCCNC(=O)Nc1cccc([C@@H](CN2CCCC2)N(C)C(=O)Cc2ccc(Cl)c(Cl)c2)c1 [compound 15]"
cat = "no"


# ---- query molecule ----
### Prompt Say whether COCCOCCOCCO[C@H]1CCN(C[C@H](c2cccc(NS(C)(=O)=O)c2)N(C)C(=O)Cc2ccc(Cl)c(Cl)c2)C1 [compound 17] shows pIC50 of 9 or more.
### Response no
